- SYSTEM_NAME: von Willebrand factor (VWF) (Homo sapiens, UniProt P04275 P04275:764-2813)
- MEASUREMENT_PROTOCOL: filter; Bmax 43%; 2 mM CaCl2, 37 C
- CONDITION_LABEL: tags: factor VIII free, Haematologic Technologies Inc; label: 5'-32P
MEASURE: pKd
Give bare numbers, as −log10 of the molar value.

Q: Field request: pKd | item: T22 (ssRNA, 2'-F C and U; 2'-OH A and G) RNA: GGACGAACUGCCCUCAGCUACUUUCAUGUUGCUGACGCACAGACGACUCGCUG
A: 7.55
